assay-procedure: Stability in human plasma assessed as lactone moieties level at 1 uM incubated at 37 degC after 3 hrs by HPLC method
Assay type: ADME, cell-free
assay-setup: read-out: Stability
readout-label: remaining at 3 h, 1 µM (%)
Answers are plain numbers, in %.

# molecule, number
measured = [
    ("CCc1c2c(nc3ccc(O)cc13)-c1cc3c(c(=O)n1C2)COC(=O)[C@]3(O)CC [7-ETHYL-10-HYDROXYCAMPTOTHECIN]", 20),
]

Could you now consider this next molecule?
[ask] Which remaining at 3 h, 1 µM value belongs to CC[C@]1(O)c2cc3n(c(=O)c2COC(=O)[C@H]1OC)Cc1c-3nc2cc3c(cc2c1-c1ccncc1)OCO3.Cl ?
[reply] 55

----------
Test system: HT-29
assay-procedure: Cytotoxicity against human HT-29 cells after 72 hrs by sulforhodamine B assay
Assay type: functional, cell-based
assay-setup: Homo sapiens, HT-29, 72 h
pIC50: −log10 of the molar value.
The label depends only on pIC50: 1 (yes) if it is at least 8, 0 (no) if it is smaller.

# compound, answer-label
records = [
    ("CC[C@]1(O)c2cc3n(c(=O)c2COC(=O)[C@H]1OC)Cc1cc2ccccc2nc1-3", "1 (yes)"),
]

[ask] Please tell me: is the compound CC[C@]1(O)c2cc3n(c(=O)c2COC(=O)[C@H]1OC)Cc1c-3nc2ccccc2c1-c1cn(C)cn1 at or over 8 in terms of pIC50?
[reply] 1 (yes)

[ask] Please tell me: is the compound CC[C@]1(O)c2cc3n(c(=O)c2COC(=O)[C@H]1OC)Cc1c-3nc2ccccc2c1C1CCN(C)CC1 at or over 8 in terms of pIC50?
[reply] 0 (no)

[ask] Please tell me: is the compound CC[C@]1(O)c2cc3n(c(=O)c2COC(=O)[C@H]1OC)Cc1cc2cc4c(cc2nc1-3)OCO4 at or over 8 in terms of pIC50?
[reply] 1 (yes)

[ask] Please tell me: is the compound CCc1c2c(nc3ccc(O)cc13)-c1cc3c(c(=O)n1C2)COC(=O)[C@]3(O)CC [7-ETHYL-10-HYDROXYCAMPTOTHECIN] at or over 8 in terms of pIC50?
[reply] 0 (no)

[ask] Please tell me: is the compound CC[C@]1(O)c2cc3n(c(=O)c2COC(=O)[C@H]1OC(C)=O)Cc1c-3nc2ccc(OC)cc2c1C1CCN(C)CC1 at or over 8 in terms of pIC50?
[reply] 0 (no)

[ask] Please tell me: is the compound CC[C@]1(O)c2cc3n(c(=O)c2COC(=O)[C@H]1OC(C)=O)Cc1c-3nc2ccc(OC)cc2c1-c1ccncc1 at or over 8 in terms of pIC50?
[reply] 0 (no)

[ask] Please tell me: is the compound CC[C@]1(O)c2cc3n(c(=O)c2COC(=O)[C@H]1OC)Cc1c-3nc2ccc(OC)cc2c1C1CCN(C)CC1 at or over 8 in terms of pIC50?
[reply] 0 (no)

[ask] Please tell me: is the compound CC[C@]1(O)c2cc3n(c(=O)c2COC(=O)[C@H]1OC(C)=O)Cc1c-3nc2ccccc2c1C1CCN(C)CC1 at or over 8 in terms of pIC50?
[reply] 0 (no)

[ask] Please tell me: is the compound CC[C@]1(O)c2cc3n(c(=O)c2COC(=O)[C@H]1OC)Cc1cc2cc(O)ccc2nc1-3 at or over 8 in terms of pIC50?
[reply] 0 (no)

----------
system-name: DNA topoisomerase 1 (Homo sapiens)
assay-procedure: Inhibition of topoisomerase 1 (unknown origin) at 10 uM using supercoiled pBR322 DNA substrate by ethidium bromide staining based electrophoresis method
Active and inactive are the calls of the source. The rule behind the calls is not given here.
readout-label: inhibition

Some solved entries appear below for comparison.
# smi, system-name, inhibition
rows = [
    ("CC[C@]1(O)c2cc3n(c(=O)c2COC(=O)[C@H]1OC)Cc1cc2cc(O)ccc2nc1-3", "DNA topoisomerase 1 (Homo sapiens)", "Active"),
    ("CC[C@]1(O)c2cc3n(c(=O)c2COC(=O)[C@H]1OC)Cc1c-3nc2ccccc2c1-c1cn(C)cn1", "DNA topoisomerase 1 (Homo sapiens)", "Active"),
    ("CC[C@]1(O)c2cc3n(c(=O)c2COC(=O)[C@H]1OC)Cc1c-3nc2ccccc2c1C1CCN(C)CC1", "DNA topoisomerase 1 (Homo sapiens)", "Active"),
    ("CC[C@]1(O)c2cc3n(c(=O)c2COC(=O)[C@H]1OC)Cc1c-3nc2ccc(OC)cc2c1-c1ccncc1", "DNA topoisomerase 1 (Homo sapiens)", "Active"),
    ("CC[C@]1(O)c2cc3n(c(=O)c2COC(=O)[C@H]1OC)Cc1cc2ccccc2nc1-3", "DNA topoisomerase 1 (Homo sapiens)", "Active"),
]

For each of the molecules below, state inhibition.
1. CC[C@]1(O)c2cc3n(c(=O)c2COC(=O)[C@H]1OC(C)=O)Cc1c-3nc2ccc(OC)cc2c1-c1ccncc1
2. CC[C@]1(O)c2cc3n(c(=O)c2COC(=O)[C@H]1OC)Cc1c-3nc2ccc(OC)cc2c1C1CCN(C)CC1
3. CC[C@]1(O)c2cc3n(c(=O)c2COC(=O)[C@H]1OC)Cc1c-3nc2ccccc2c1-c1ccncc1

[reply]
1. Active
2. Active
3. Active

----------
System: HT-29
assay-procedure: Cytotoxicity against human HT-29 cells after 72 hrs by sulforhodamine B assay
Assay type: functional, cell-based
assay-setup: Homo sapiens, HT-29, 72 h
readout-label: pIC50
Answers are plain numbers, as −log10 of the molar value.

# smi, system-name, pIC50
data = [
    ("CC[C@]1(O)c2cc3n(c(=O)c2COC(=O)[C@H]1OC(C)=O)Cc1c-3nc2ccccc2c1-c1ccncc1", "HT-29", 7.94),
    ("CC[C@]1(O)c2cc3n(c(=O)c2COC(=O)[C@H]1OC(C)=O)Cc1c-3nc2ccccc2c1-c1cn(C)cn1", "HT-29", 8.04),
    ("CC[C@]1(O)c2cc3n(c(=O)c2COC(=O)[C@H]1OC)Cc1c-3nc2ccccc2c1-c1ccncc1", "HT-29", 8.14),
]

Could you now consider this next compound?
[ask] Which pIC50 value belongs to CC[C@]1(O)c2cc3n(c(=O)c2COC(=O)[C@H]1OC)Cc1c-3nc2ccc(OC)cc2c1-c1ccncc1 ?
[reply] 8.17
